Listing of entries alongside the reported pKd.
# target_system: T1, Rhesus CD3εδ Fc heterodimer (rhesus)
# T1 construct: extracellular domain; also called Rh CD3εδ-Fc
# run_description: BLI (Octet), Fab monovalent, pH 7.4
Scale: negative log10 of molar concentration, which is what pKd denotes.

Worked cases, answers included:
{"binder": "Antibody No. A001 (ADI-26906) Fab (Fab, V domains shown, Fab by papain digestion of the IgG1) VH: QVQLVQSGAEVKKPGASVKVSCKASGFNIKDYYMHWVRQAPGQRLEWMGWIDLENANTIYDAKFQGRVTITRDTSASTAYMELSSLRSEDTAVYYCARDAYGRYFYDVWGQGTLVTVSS VL: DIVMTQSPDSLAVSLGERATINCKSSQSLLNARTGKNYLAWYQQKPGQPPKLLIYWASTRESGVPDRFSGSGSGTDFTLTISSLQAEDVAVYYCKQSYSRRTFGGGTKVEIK", "recorded_result": 8.21}
{"binder": "Antibody No. V010 (ADI-70327) Fab (Fab, V domains shown, Fab by papain digestion of the IgG1) VH: QVQLVQSGAEVKKPGASVKVSCKASGFDIKDYYMHWVRQAPGQRLEWIGWIELENDDTVYDAKFQGRVTITRDTSASTAYMELSSLRSEDTAVYYCARDAYGRYFYDVWGQGTLVTVSS VL: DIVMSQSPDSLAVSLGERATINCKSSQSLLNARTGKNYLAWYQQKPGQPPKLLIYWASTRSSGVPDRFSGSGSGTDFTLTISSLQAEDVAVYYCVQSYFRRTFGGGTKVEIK", "recorded_result": 8.36}

Could you now look at the following binder, please?
Recorded pKd (binder Antibody No. V019 (ADI-76362) Fab (Fab, V domains shown, Fab by papain digestion of the IgG1) VH: QVQLVQSGAEVKKPGASVKVSCKASGFNIKDYYMHWVRQAPGQRLEWMGWIDLEEGDTIYDAKFQGRVTITRDTSASTAYMELSSLRSEDTAVYYCARDAYGRYFYDVWGQGTLVTVSS VL: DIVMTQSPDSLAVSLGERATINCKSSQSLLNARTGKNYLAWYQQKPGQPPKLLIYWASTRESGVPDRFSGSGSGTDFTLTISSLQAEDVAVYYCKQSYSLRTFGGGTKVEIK ): 7.10
